Measurement Target: T1, BCMA on cells (293T cells transfected with BCMA; H929, MM.1S and U266 cell lines expressing BCMA) (human, UniProt Q02223 1-184)
T1 construct: H929, MM.1S and U266 carry the native protein; also called B-cell Maturation Antigen; TNFRSF17
T1 sequence: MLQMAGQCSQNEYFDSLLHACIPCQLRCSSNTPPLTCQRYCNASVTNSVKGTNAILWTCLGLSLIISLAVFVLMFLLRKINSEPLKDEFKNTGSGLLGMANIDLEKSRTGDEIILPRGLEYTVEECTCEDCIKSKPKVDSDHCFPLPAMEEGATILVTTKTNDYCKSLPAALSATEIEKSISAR
Measurement Protocol: flow cytometry, H929 cells; note: test concentration or dose not given here
Consider the following binders; for each one, report its Mean fluorescent intensity.
One number for each entry.

| Binder | Mean fluorescent intensity |
| --- | --- |
| SCT-Aa06(m/m) (antibody, V domains shown, Full IgG format: mouse IgG1 heavy chain constant region, mouse kappa light chain constant region) VH: EVQLQQSGPELVKPGNSVKISCKASGYSFTGYFMNWVMQSHGKSLEWIGRINPYNGDTFYNQKFKGKATLTVDKSSSTAHMELRSLTSEDSAVYYCARLDYTNYNSYPMDYWGQGTSVTVSS VL: DIQMTHTTSSLSASLGDRVTISCSASQGISNYLNWYLQKPDGTVKLLIYYTSNLHSGVPSRFSGSGSGTDFSLTISNLQPEDIATYYCQQYSKFPWTFGGGTKLEIK | 4300 |
| SCT-Aa14(m/m) (antibody, V domains shown, Full IgG format: mouse IgG1 heavy chain constant region, mouse kappa light chain constant region) VH: QVQLQQSDAELVKPGASVKISCKVSSYTFTDHTIHWMKQRPEQGLEWIGYIFPRDGSTKYNEKFKGKATLTADKSSSTAYMQLNSLTSEDSAVYFCARWDYEGFDYWGQGTTLTVSS VL: DIVMTQSPATLSVTPGDRVSLSCRASQNISDYLHWYQQKSHESPRLLIKYASQSISGIPSRFSGSGSGSDFTLSINSVEPEDVGVYYCQNGHSFPPTFGSGTKLEIK | 475 |
| SCT-Aa13(m/m) (antibody, V domains shown, Full IgG format: mouse IgG1 heavy chain constant region, mouse kappa light chain constant region) VH: QVQLQQSDAELVKPGASVKISCKVSGYTFTDYTIHWMKQRPEQGLEWIGYIYPRDGSTKYNEKFKGKATLTADKSSSTAYMQLNSLTSEDSAVYFCARWDYEGFDYWGQGTTLTVSS VL: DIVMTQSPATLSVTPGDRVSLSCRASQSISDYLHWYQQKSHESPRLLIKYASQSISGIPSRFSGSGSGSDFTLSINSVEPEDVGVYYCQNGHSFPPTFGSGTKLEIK | 2560 |
| SCT-Aa13(h/h) (antibody, V domains shown, Full IgG format, chimeric: human IgG1 heavy chain constant region, human kappa light chain constant region) VH: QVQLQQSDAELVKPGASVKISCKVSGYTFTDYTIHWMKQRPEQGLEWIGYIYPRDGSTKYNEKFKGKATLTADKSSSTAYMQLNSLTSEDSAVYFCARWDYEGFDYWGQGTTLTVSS VL: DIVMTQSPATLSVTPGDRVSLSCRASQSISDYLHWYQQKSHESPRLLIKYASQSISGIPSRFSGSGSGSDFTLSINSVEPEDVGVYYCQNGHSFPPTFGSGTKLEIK | 756 |

For the next question, use this binder.
Which Mean fluorescent intensity reading was recorded for the binder SCT-Aa16(h/h) (antibody, V domains shown, Full IgG format, chimeric: human IgG1 heavy chain constant region, human kappa light chain constant region) VH: EVQLQQSGPELVKPGASVKMSCKGSGYTFTNYIMHWVKQKPGQGLEWIGYIIPYNDNTKYNEKFKGKATLTSDKSSSTAYMELSSLTSEDSAVYYCATYEYDVGLDYWGQGTTLTVSS VL: DLQMTQTTSSLSASLGDRVTISCSARQGIVNYLNWYQQKPDGTVKLLIYNTSSLHSGVPSRFSGSGSGTDYSLTISNLEPEDIATYYCQQYSKLPWTFGGGTKLEIK ?
853
